Data origin: patent US11603373B2

- system.tested: TDO2 (SW48 cells, high TDO expressing cells) (Homo sapiens, UniProt P48775)
- Construct: SW48 cells (high TDO expressing cells); endogenous in cells
- Sequence (P48775 whole entry): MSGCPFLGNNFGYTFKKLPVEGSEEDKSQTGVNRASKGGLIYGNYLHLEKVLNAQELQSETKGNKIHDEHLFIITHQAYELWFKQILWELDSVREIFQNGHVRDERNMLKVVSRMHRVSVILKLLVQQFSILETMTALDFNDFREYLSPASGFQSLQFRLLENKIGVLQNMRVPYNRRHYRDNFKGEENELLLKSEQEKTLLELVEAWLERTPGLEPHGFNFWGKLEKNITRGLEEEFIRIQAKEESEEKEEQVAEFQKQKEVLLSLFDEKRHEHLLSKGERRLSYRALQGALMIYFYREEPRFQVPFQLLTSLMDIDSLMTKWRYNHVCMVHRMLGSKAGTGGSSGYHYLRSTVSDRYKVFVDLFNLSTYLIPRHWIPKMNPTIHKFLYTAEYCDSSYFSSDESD
- method: NFK GreenScreen cell assay, inhibition of TDO in SW48 cells
- conditions.used: read-out: TDO2 Cell Fluor EC50
- From the text: Cells are counted on a Vi-Cell (Beckman Coulter). […] The final DMSO concentration is 0.5%.
Parameter: log10(EC50). Scope: all listed entries.
measurement.name: log10(EC50) (log10 of the value in nM)

compound	measurement.name	readout.number
O=C(CC1CCOCC1)N1CCC2(CC1)CC(C1c3ccccc3-c3cncn31)C2O (centres unmarked) [compound 51]	log10(EC50)	2.34
O=C(CN1CCCC1=O)N1CCC2(CC1)C[C@@H]([C@H]1c3ccccc3-c3cncn31)[C@H]2O [compound 52]	log10(EC50)	3.57
CC(C)(C)OC(=O)N1[C@@H]2CC[C@H]1C[C@@]1(C[C@@H]([C@H]3c4ccccc4-c4cncn43)[C@@H]1O)C2 (single isomer, unassigned) [Example 12h]	log10(EC50)	4.11
CC(C)(C)OC(=O)N[C@H]1CC[C@@]2(CC1)C[C@@H]([C@H]1c3ccccc3-c3cncn31)[C@H]2O (single isomer, unassigned) [Example 24l]	log10(EC50)	3.93
CC(C)(C)OC(=O)N1CC2(CC[C@@H]([C@@H]3c4ccccc4-c4cncn43)[C@@H]2O)C1 (single isomer, unassigned) [Example 3c]	log10(EC50)	4.15
CC(C)(C)OC(=O)N[C@H]1CC[C@@]2(CC1)C[C@H](C1c3ccccc3-c3cncn31)[C@H]2O (some centres unmarked) [Example 24k]	log10(EC50)	4.15
CC(C)(C)OC(=O)N[C@H]1CC[C@@]2(CC1)C[C@H]([C@@H]1c3ccccc3-c3cncn31)[C@@H]2O (single isomer, unassigned) [Example 24p]	log10(EC50)	3.52
COCCC(=O)N1CCC2(CC1)C[C@@H]([C@H]1c3ccccc3-c3cncn31)[C@H]2O [compound 47]	log10(EC50)	2.93
CC(C)(C)OC(=O)N1[C@@H]2CC[C@H]1C[C@]1(C[C@H]([C@H]3c4ccccc4-c4cncn43)[C@@H]1O)C2 (single isomer, unassigned) [Example 12c]	log10(EC50)	2.72
O=S(=O)(C1CCC1)N1CCC2(CC1)C[C@@H]([C@H]1c3ccccc3-c3cncn31)[C@H]2O [compound 36]	log10(EC50)	2.18
N#CCS(=O)(=O)N1CCC2(CC1)CC(C1c3ccccc3-c3cncn31)C2O (centres unmarked) [Example 21a]	log10(EC50)	2.26
O=S(=O)(CF)N1CCC2(CC1)C[C@@H]([C@H]1c3ccccc3-c3cncn31)[C@H]2O (single isomer, unassigned) [Example 8b]	log10(EC50)	2.08
Cc1cc(CC(=O)N2CCC3(CC2)CC(C2c4ccccc4-c4cncn42)C3O)on1 (centres unmarked) [compound 63]	log10(EC50)	2.49
CC(C)(C)OC(=O)N[C@H]1CC[C@]2(CC1)C[C@H]([C@@H]1c3ccccc3-c3cncn31)[C@H]2O (single isomer, unassigned) [Example 24c]	log10(EC50)	2.86
CC(C)(C)OC(=O)N1CCC2(CC1)C[C@H](C1c3ccccc3-c3cncn31)[C@@H]2O (single isomer, unassigned) [Example 1a]	log10(EC50)	3.80
CC(C)(C)OC(=O)N[C@H]1CC[C@@]2(CC1)C[C@@H]([C@@H]1c3ccccc3-c3cncn31)[C@H]2O (single isomer, unassigned) [Example 24d]	log10(EC50)	3.40
CC(C)(C)OC(=O)N1CC2CCC(C1)C21C[C@H]([C@@H]2c3ccccc3-c3cncn32)[C@@H]1O (relative stereo) [Example 22a]	log10(EC50)	2.61
O=C(C1CCS(=O)(=O)C1)N1CCC2(CC1)C[C@@H]([C@H]1c3ccccc3-c3cncn31)[C@H]2O (some centres unmarked) [compound 65]	log10(EC50)	3.95
Cc1nn(C)c(C)c1S(=O)(=O)N1CCC2(CC1)CC(C1c3ccccc3-c3cncn31)C2O (centres unmarked) [compound 27]	log10(EC50)	2.15
CN(C)C(=O)CCC(=O)N1CCC2(CC1)CC(C1c3ccccc3-c3cncn31)C2O (centres unmarked) [compound 50]	log10(EC50)	3.11
Cc1nc(S(=O)(=O)N2CCC3(CC2)C[C@@H]([C@H]2c4ccccc4-c4cncn42)[C@H]3O)cn1C [compound 30]	log10(EC50)	2.69
CS(=O)(=O)N1CCC2(CC1)C[C@@H]([C@@H]1c3ccccc3-c3cncn31)[C@H]2O (single isomer, unassigned) [Example 6e]	log10(EC50)	3.83
COCCOC(=O)N1CCC2(CC[C@@H]([C@H]3c4ccccc4-c4cncn43)[C@H]2O)CC1 (single isomer, unassigned) [Example 19]	log10(EC50)	1.97
CC(C)(C)OC(=O)N1[C@@H]2CC[C@H]1C[C@]1(C[C@@H]([C@@H]3c4ccccc4-c4cncn43)[C@@H]1O)C2 (single isomer, unassigned) [Example 12e]	log10(EC50)	3.18
CP(C)(=O)N1CCC2(CC1)C[C@@H]([C@H]1c3ccccc3-c3cncn31)[C@H]2O (single isomer, unassigned) [Example 15b]	log10(EC50)	3.18
CC(C)(C)OC(=O)N1CC2(CC[C@H]([C@@H]3c4ccccc4-c4cncn43)[C@@H]2O)C1 (single isomer, unassigned) [Example 3b]	log10(EC50)	1.86
